Target: T1, 4H2444-bN
T1 chain: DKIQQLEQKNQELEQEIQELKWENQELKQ
Experiment: two-hybrid library CCNG1;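 note: natural log of median RNA to DNA barcode read ratio; higher means stronger binding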
MET means recorded interaction score is 0.1 or above; NOT MET means it is below 0.1.

{"Binder": "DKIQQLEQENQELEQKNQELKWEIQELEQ [4H2233-bN]", "Answer Label": "NOT MET"}
{"Binder": "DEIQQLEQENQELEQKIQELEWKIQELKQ [4H166-bN]", "Answer Label": "MET"}

API: above_or_equal(metric=interaction score, cutoff=0.1) for item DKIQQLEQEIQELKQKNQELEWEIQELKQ [4H2162-bN]
NOT MET

API: above_or_equal(metric=interaction score, cutoff=0.1) for item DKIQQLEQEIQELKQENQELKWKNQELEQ [4H2143-bN]
NOT MET

API: above_or_equal(metric=interaction score, cutoff=0.1) for item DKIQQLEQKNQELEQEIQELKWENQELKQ [4H2444-bN]
MET

API: above_or_equal(metric=interaction score, cutoff=0.1) for item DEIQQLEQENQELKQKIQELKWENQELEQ [4H235-bN]
NOT MET

API: above_or_equal(metric=interaction score, cutoff=0.1) for item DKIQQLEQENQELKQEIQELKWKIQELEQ [4H2253-bN]
MET
